# assay.system: RSV F protein of subtype A (strain A2) on recombinant mKate-RSV virus (Respiratory syncytial virus subtype A …, UniProt P03420 26-574)
# assay.text: cell-based or functional assay
value.kind: Neut IC50 (µg/ml) subtype A (µg/mL)
Express it in µg/mL; write the number only.

The cases that follow already have their Neut IC50 (µg/ml) subtype A on record.
INSERT INTO results (binder, value_kind, measured) VALUES
  ('ADI-18896 (antibody, V domains shown, full-length IgG from yeast) VH: EVQLLESGGGVVQSGRSLRLSCAASGFTFSDNGMHWVRQAPGKGLEWVAGIFYDGSNKQYADSVKGRFTISRDNSKSTLYLQMNSLRAEDTAVYYCARAPYDIWSGYCLDYWGQGTLVTVSS VL: DIQMTQTPATLSMSPGERATLSCRASQSVNNNLAWYQQRPGQAPRLLIYGASTRATGIPARFSGSGSETEFTLTISSLQSEDFAVYHCQQYSIWPQTFGQGTKLEIK', 'Neut IC50 (µg/ml) subtype A', 1.1),
  ('ADI-18875 (antibody, V domains shown, full-length IgG from yeast; also called Antibody Number 232; Ab # 232) VH: QVQLQQWGAGLLKPSETLSLTCAVYGGSFSGYSWSWIRQTPGKGLEWIGEINHRGSTNYNPSLKSRVTMSVDTSQNQISLRVTSVTAADTAVYFCAGTNYGEVNTSNQYFFGMDVWGQGTTVTVSS VL: DIQVTQSPSSLSASVGDRVTITCRASQSIGTYLNWYQQKPGKPPKLLIYAASNLESGVPSSFSGSGSGTHFTLTISSLQPEHFATYYCQQSYSTPLTFGGGTKVEIK', 'Neut IC50 (µg/ml) subtype A', 0.04),
  ('ADI-18955 (antibody, V domains shown, full-length IgG from yeast; also called Antibody Number 306; Ab # 306) VH: EVQLVESGGGVVQSGRSLRLSCAASGFIFSDNGMHWVRQAPGKGLEWVAGIFYDGSNKQYADSVKGRFTISRDNSKNTLYLQMKSLRAEDTAVYYCARAPYDIWSGYCLDYWGQGTLVTVSS VL: DIQVTQSPATLSMSPGERATLSCRASQSVNNNLAWYQQRPGQAPRLLIYGASTRATGIPARFSGSGSETEFTLTISSLQSEDFAVYHCQQYSIWPQTFGQGTKVEIK', 'Neut IC50 (µg/ml) subtype A', 1.93);

Short answer for ADI-18926 (antibody, V domains shown, full-length IgG from yeast; also called Antibody Number 280; Ab # 280) VH: EVQLVESGAEVKKPGASVKVSCQTSGYTFSHFGVTWIRQAPGQGLEWLGWISAYNGNTDYADKLQGRLTMTTDTSTNTAYMELRSLRSDDTAVYYCARDPPASAAAMLDYWGQGTLVTVSS VL: DIVMTQSPLSLAVTLGQPASISCKSSQGLEYTDGNTYLSWFQQRPGQSPRRLIYKISNRDSGVPDRFSGSGSGTDFTLRISRVEAEDVGVYYCMQGTHGRGISFGPGTKVDIK : Neut IC50 (µg/ml) subtype A was 0.023
